molecular target: ZFP SBS#1440 (synthetic); assay: EMSA; conditions: tags: MBP fusion
Sequence (chain, as listed by the source): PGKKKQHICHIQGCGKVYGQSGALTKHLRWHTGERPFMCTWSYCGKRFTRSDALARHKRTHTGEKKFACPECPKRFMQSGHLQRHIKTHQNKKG
measured.quantity: Kd (nM)
Provide only the numeric value, understood in nM.

Which Kd is reported for this binder? GGAGTGTTA (dsDNA) DNA 1: GGAGTGTTA DNA 2: TAACACTCC
0.035
